# system tested: D(2) dopamine receptor (Homo sapiens)
# Sequence (P14416 whole entry): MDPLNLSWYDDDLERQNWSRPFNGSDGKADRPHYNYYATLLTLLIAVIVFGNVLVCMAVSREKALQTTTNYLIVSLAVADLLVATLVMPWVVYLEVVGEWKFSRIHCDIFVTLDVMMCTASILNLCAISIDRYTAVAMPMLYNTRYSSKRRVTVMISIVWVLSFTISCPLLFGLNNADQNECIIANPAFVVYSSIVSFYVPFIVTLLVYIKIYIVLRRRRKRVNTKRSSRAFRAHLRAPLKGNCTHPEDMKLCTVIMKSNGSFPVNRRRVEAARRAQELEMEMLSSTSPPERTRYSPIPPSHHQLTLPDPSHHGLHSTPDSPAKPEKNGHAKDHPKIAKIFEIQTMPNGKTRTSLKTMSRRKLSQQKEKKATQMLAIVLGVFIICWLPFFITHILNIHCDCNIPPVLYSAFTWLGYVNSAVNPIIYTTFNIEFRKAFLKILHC
# experimental details: Antagonist activity at human dopamine D2L receptor expressed in CHO cells assessed as inhibition of quinelorane-induced [35S]GTPgammaS binding
reported endpoint: Ki (nM)

Recorded Ki, per entry:
molecule | value unit | Ki
Cc1ncoc1-c1nnc(SCCCN2CCC3CC3(c3ccc(C(F)(F)F)cc3)C2)n1C (stereo unspecified) | nM | 501
Cc1nc(C)c(-c2nnc(SCCCN3CCC4CC4(c4ccc(C(F)(F)F)cc4)CC3)n2C)s1 (stereo unspecified) | nM | 200
Cc1ncoc1-c1nnc(SCCCNC2CC3CC3(c3ccccc3)C2)n1C (stereo unspecified) | nM | 251
Cc1ncoc1-c1nnc(SCCCN2[C@@H]3CC[C@H]2C[C@@H](c2ccc(C(C)(C)C)cc2)C3)n1C | nM | 398
Cc1ncoc1-c1nnc(SCCCN2CCC3(c4cccc(C(F)(F)F)c4)CC3C2)n1C (stereo unspecified) | nM | 2510

A. Cc1ncoc1-c1nnc(SCCCN2CCC3CC3(c3ccccc3)C2)n1C (stereo unspecified)
B. Cc1ncoc1-c1nnc(SCCCN[C@@H]2CC[C@]3(c4ccc(C(F)(F)F)cc4F)CC23)n1C (stereo partly specified)
C. COc1ccc2c(c1)CCCC21CCN(CCCSc2nnc(-c3ocnc3C)n2C)C1 (stereo unspecified)
D. Cc1ncoc1-c1nnc(SCCCN2CCC3CC3(c3ccc(C(F)(F)F)cc3)CC2)n1C (stereo unspecified)
Task: Order by Ki, ascending. Please, when replying, give the labels in the order that was requested.
Output: D, B, A, C
(D: 100 nM, B: 200 nM, A: 398 nM, C: 1000 nM)

P. Cn1c(SCCCN2CCC3CC3(c3ccc(C(F)(F)F)cc3)CC2)nnc1-c1ccnnc1 (stereo unspecified)
Q. Cc1ncoc1-c1nnc(SCCCN2CCC3(CCc4c(Br)cccc43)C2)n1C (stereo unspecified)
Task: Min Ki? P | Q State your choice using its label.
Output: Q

---

# system tested: D(3) dopamine receptor (Homo sapiens)
# Sequence (P35462 whole entry): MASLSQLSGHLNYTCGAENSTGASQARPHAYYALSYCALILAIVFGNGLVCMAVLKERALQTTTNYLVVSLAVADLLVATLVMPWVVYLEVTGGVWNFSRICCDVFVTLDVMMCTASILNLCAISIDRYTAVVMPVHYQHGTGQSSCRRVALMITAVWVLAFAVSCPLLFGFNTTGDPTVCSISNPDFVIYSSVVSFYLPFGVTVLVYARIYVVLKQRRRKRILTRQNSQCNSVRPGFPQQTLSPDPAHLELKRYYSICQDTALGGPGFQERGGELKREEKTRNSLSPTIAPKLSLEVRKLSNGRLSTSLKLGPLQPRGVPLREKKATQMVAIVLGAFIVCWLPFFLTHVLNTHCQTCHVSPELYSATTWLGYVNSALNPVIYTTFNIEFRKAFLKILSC
# experimental details: Antagonist activity at human dopamine D3 expressed in CHO cells assessed as inhibition of quinelorane-induced [35S]GTPgammaS binding
pKi: −log10 of the molar value.
reported endpoint: pKi

Recorded pKi, per entry:
molecule | system tested | value
Cc1nc(C)c(-c2nnc(SCCCN3CCC4CC4(c4ccc(C(F)(F)F)cc4)CC3)n2C)o1 (centres undefined) | D(3) dopamine receptor (Homo sapiens) | 8.00
Cc1ncoc1-c1nnc(SCCCN[C@@H]2CC[C@]3(c4ccc(C(F)(F)F)cc4F)CC23)n1C (some centres undefined) | D(3) dopamine receptor (Homo sapiens) | 8.50
Cc1ncoc1-c1nnc(SCCCN2CCC3(CCOc4ccccc43)C2)n1C (centres undefined) | D(3) dopamine receptor (Homo sapiens) | 7.00
Cn1c(SCCCN2CCC3CC3(c3ccc(C(F)(F)F)cc3)CC2)nnc1-c1ccnnc1 (centres undefined) | D(3) dopamine receptor (Homo sapiens) | 8.40
Cc1nc(C)c(-c2nnc(SCCCN3CCC4(CCc5cc(Cl)ccc54)C3)n2C)s1 (centres undefined) | D(3) dopamine receptor (Homo sapiens) | 7.50
Cc1ncoc1-c1nnc(SCCCN2[C@@H]3CC[C@H]2C[C@@H](c2ccc(C(F)(F)F)cc2F)C3)n1C | D(3) dopamine receptor (Homo sapiens) | 8.20

P. Cc1ncoc1-c1nnc(SCCCN2CCC3(CCc4ccc(Br)cc43)C2)n1C (centres undefined)
Q. Cc1ncoc1-c1nnc(SCCCN2CCC3(CCCc4ccc(Br)cc43)C2)n1C (centres undefined)
Task: Between the entries labelled P and Q , which has a larger pKi value on record? State your choice using its label.
Output: P
